Test system: NF-kB reporter activity
Assay: NF-kB luciferase reporter assay (TNFa-stimulated NF-kB Reporter-HEK293 cells)
Type: cell-based, human
Details: Homo sapiens; NF-kB Reporter-HEK293 cells, overnight compound, TNFa 10 ng/mL 5-6 hours, luciferase; read-out: IC50 against NF-kB reporter activity
quantity: IC50 (nM)

P = C1=C/COCc2cc(ccc2OCCN2CCCC2)Nc2nccc(n2)-c2cccc(c2)COC/1 [Pacritinib (SB1518)]
Q = N#CCNC(=O)c1ccc(-c2ccnc(Nc3ccc(N4CCOCC4)cc3)n2)cc1 [MMB/Momelotinib]
R = Cc1noc2c1-c1ccccc1C(c1ccc(Cl)cc1)=N[C@H]2CC(N)=O [CPI-0610]
## Input Parameters: sort_field (IC50), sort_dir (desc). Provide the labels, sequenced as the question asks.
## Output P, Q, R
